- Tested on: 379773-124-R-J2-PDC complex spheroids, viability % test/control;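 further: compound exposure lasted seven days before the viability readout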
- assay.summary: Anticancer human tumor 379773-124-R-J2-PDC patient-derived endometrial carcinoma cell line growth inhibition [CLK]; active means viability on the fitted dose curve at most 10% of control; inactive means the rest
- run.conditions: second compound 3.16 µM; first compound 0.000949 µM
Classes used: active, inactive

compound="CC(C)CC(NC(=O)C(Cc1ccccc1)NC(=O)c1cnccn1)B(O)O (centres undefined) + CN1CCN(c2cc(C(=O)Nc3cc4cc(-c5cnn(C)c5)ccc4cn3)ccn2)CC1" class=active
compound="CC(C)CC(NC(=O)C(Cc1ccccc1)NC(=O)c1cnccn1)B(O)O (centres undefined) + CNC(=O)c1ccc(Nc2nc(OC3CCCC3)c3c(-c4ccc5nc(C)oc5c4)c[nH]c3n2)c(OC)c1" class=inactive
compound="C=CC(=O)Nc1cc(Nc2nccc(-c3cn(C)c4ccccc34)n2)c(OC)cc1N(C)CCN(C)C + CN1CCN(c2cc(C(=O)Nc3cc4cc(-c5cnn(C)c5)ccc4cn3)ccn2)CC1" class=active
compound="C=CC(=O)Nc1cc(Nc2nccc(-c3cn(C)c4ccccc34)n2)c(OC)cc1N(C)CCN(C)C + CNC(=O)c1ccc(Nc2nc(OC3CCCC3)c3c(-c4ccc5nc(C)oc5c4)c[nH]c3n2)c(OC)c1" class=inactive
